system: biotinyl-Met-oxazolone; assay: self-aminoacylation, catalytic enhancement (BMO) (fold over background); higher = more active; k-Seq, kA / k0A0; sequences stand for … in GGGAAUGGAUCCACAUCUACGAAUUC…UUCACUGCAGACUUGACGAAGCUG
Fewer inactive variants are shown than the library holds.
experimental.endpoint: self-aminoacylation
Lab note: jot the number down without any unit.

Q: I am curious: what self-aminoacylation value has been reported for CCACACAUCAAGCAGUCGGUC [Fam1B.1 aminoacylation ribozyme variant] ?
Result: 0.686

Q: Another: CCACACUUCAAGUAUUCGGUC [Fam1B.1 aminoacylation ribozyme variant]
Result: 1.42

Q: Continue with AGCCACCUAGGUCAUCGGGUG [Fam2.2 aminoacylation ribozyme variant]
Result: 7.16

Q: Next sequence: AAUACCCUGGUUAUCGAGUGA [Fam2.1 aminoacylation ribozyme variant]
Result: 6.97

Q: Likewise for ACUACCCUGGUCAUCUAGUGA [Fam2.1 aminoacylation ribozyme variant] ?
Result: 7.5

Q: Would you kindly repeat that for AUUCAUCUGGGUCAUCGGGUG [Fam2.2 aminoacylation ribozyme variant] ?
Result: 7.57

Q: Param item: ACGACCCUGGUCAUCGAGUGA [Fam2.1 aminoacylation ribozyme variant]
Result: 6.93

Q: What about this sequence? AAGUUUGCUAGUACUCGCAAG [Fam3.1 aminoacylation ribozyme variant]
Result: 0.907

Q: Follow-up item: AUACACCUAGGGCAUCGGGUG [Fam2.2 aminoacylation ribozyme variant]
Result: 2.83

Q: Same thing, different sequence: AUUAUCCUGGUCAACGAGUGA [Fam2.1 aminoacylation ribozyme variant]
Result: 6.62

Q: Likewise for AAUUUUGCUAAUUGUCGCAAG [Fam3.1 aminoacylation ribozyme variant] ?
Result: 1.92

Q: Further, for AUUCAUCCAGGUCAUCGGGUG [Fam2.2 aminoacylation ribozyme variant] ?
Result: 7.87

Q: Next up: AUUACUCUGGUCAGCGAGUGA [Fam2.1 aminoacylation ribozyme variant]
Result: 5.21
